System: LPS-stimulated human peripheral blood mononuclear cells (IL1-β)
Format: cell-based
Conditions: Table 12; cells stimulated with 10 ng/ml LPS; LPS alone 1313 (HH2 derivatives), 1927 (1018 derivatives), 2455 (1002 and hybrid peptides) pg/ml
Ends that are not written are not given here.
METRIC_NAME: IL1β Production (pg/mL)
Numbers only, in pg/mL.

Please review the following examples before continuing.
- SUBSTANCE: "HH2-K11: single substituted HH2 peptide (VQLRIRVAVIKA-NH2)"
  IL1β Production / pg/mL: 1593
- SUBSTANCE: "1018-L10: single substituted 1018 peptide (VRLIVAVRILRR-NH2) [Peptide 1018-L10]"
  IL1β Production / pg/mL: 127
- SUBSTANCE: "1002-V4: single substituted 1002 peptide (VQRVLIVWRIRK-NH2) [Peptide 1002-V4]"
  IL1β Production / pg/mL: 190

Please state IL1β Production for every substance in the list that follows.
1. 1002-G7: single substituted 1002 peptide (VQRWLIGWRIRK-NH2) [Peptide 1002-G7]
2. 1018-G7: single substituted 1018 peptide (VRLIVAGRIWRR-NH2) [Peptide 1018-G7]
3. 1018-L2: single substituted 1018 peptide (VLLIVAVRIWRR-NH2) [Peptide 1018-L2]
4. HH2-I4: single substituted HH2 peptide (VQLIIRVAVIRA-NH2)

Result ::
[353, 1610, 426, 760]

Please state IL1β Production for every substance in the list that follows.
1. 1018-L6: single substituted 1018 peptide (VRLIVLVRIWRR-NH2) [Peptide 1018-L6]
2. 1018-Q2: single substituted 1018 peptide (VQLIVAVRIWRR-NH2) [Peptide 1018-Q2]
3. HH2-Q7: single substituted HH2 peptide (VQLRIRQAVIRA-NH2)
4. 1018-W11: single substituted 1018 peptide (VRLIVAVRIWWR-NH2) [Peptide 1018-W11]
5. 1002-V9: single substituted 1002 peptide (VQRWLIVWVIRK-NH2) [Peptide 1002-V9]
6. 1018-R9: single substituted 1018 peptide (VRLIVAVRRWRR-NH2) [Peptide 1018-R9]
7. 1002-L3: single substituted 1002 peptide (VQLWLIVWRIRK-NH2) [Peptide 1002-L3]
8. 1002-R6: single substituted 1002 peptide (VQRWLRVWRIRK-NH2) [Peptide 1002-R6]

Result ::
340
127
1316
814
134
310
127
605

Please state IL1β Production for every substance in the list that follows.
1. HH2-A9: single substituted HH2 peptide (VQLRIRVAAIRA-NH2)
2. 1018-G1: single substituted 1018 peptide (GRLIVAVRIWRR-NH2) [Peptide 1018-G1]

Result ::
1: 1923; 2: 127

Origin of measurements: patent US20190315823A1
